- system_tested: Na^+ -dependent bile acid transport system (Oryctolagus cuniculus)
- Construct: Preparation of brush-border membrane vesicles from the ileum of rabbits; from tissue; host or cells: brush-border membrane vesicles from the terminal small intestine (ileum) of male New Zealand rabbits
- assay: Inhibition of Na^+ -dependent [^3 H]taurocholate absorption into brush-border membrane vesicles of the ileum
- Format: biochemical, rabbit
- assay_context: [^3 H]taurocholate absorption, rabbit ileum brush-border membrane vesicles; taurocholate 50 μM, pH 7.4, customarily 1 min; read-out: IC50
The following compounds are listed with their measured IC50 values.
reported_metric: IC50 (µM)

1) C[C@H](CCC(=O)NCCO[C@H]1CC[C@@]2(C)[C@@H](C1)C[C@@H](O)[C@@H]1[C@@H]2C[C@H](O)[C@]2(C)[C@@H]([C@H](C)CCC(=O)O)CC[C@@H]12)[C@H]1CC[C@H]2[C@@H]3[C@H](O)C[C@@H]4C[C@H](O)CC[C@]4(C)[C@H]3C[C@H](O)[C@]12C :: 45
2) C[C@H](CCC(=O)O)[C@H]1CC[C@H]2[C@@H]3[C@H](O)C[C@@H]4C[C@@H](OCCNC(=O)CCC(=O)NCCO[C@H]5CC[C@@]6(C)[C@@H](C5)C[C@@H](O)[C@@H]5[C@@H]6C[C@H](O)[C@]6(C)[C@@H]([C@H](C)CCC(=O)O)CC[C@@H]56)CC[C@]4(C)[C@H]3C[C@H](O)[C@]12C :: 30

====

- system_tested: Na^+ -dependent bile acid transport system (Oryctolagus cuniculus)
- Construct: Preparation of brush-border membrane vesicles from the ileum of rabbits; from tissue; host or cells: brush-border membrane vesicles from the terminal small intestine (ileum) of male New Zealand rabbits
- assay: Inhibition of Na^+ -dependent [^3 H]taurocholate absorption into brush-border membrane vesicles of the ileum
- Assay type: biochemical, rabbit
- assay_context: [^3 H]taurocholate absorption, rabbit ileum brush-border membrane vesicles; taurocholate 50 μM, pH 7.4, customarily 1 min; read-out: IC50
- Experimental: The pharmacological data include a series of -tests in which the interaction of the compounds according to the invention with the intestinal bile acid transport system was investigated in the terminal small intestine: 1. Preparation of brush-border membrane vesicles from the ileum of rabbits […] The absorption of substrates into brush-border membrane vesicles was determined by means of the so-called membrane filtration technique. […]
reported_metric: IC50 (µM)

1) C[C@H](CCC(=O)NCC(=O)O)[C@H]1CC[C@H]2[C@@H]3[C@H](O)C[C@@H]4C[C@@H](OCCNC(=O)CCC(=O)NCCCNC(=O)CC[C@@H](C)[C@H]5CC[C@H]6[C@@H]7[C@H](O)C[C@@H]8C[C@H](OC(c9ccccc9)c9ccccc9)CC[C@]8(C)[C@H]7C[C@H](O)[C@]56C)CC[C@]4(C)[C@H]3C[C@H](O)[C@]12C [Example 528] :: 26

====

- system_tested: Na^+ -dependent bile acid transport system (Oryctolagus cuniculus, UniProt Q28727)
- Construct: Preparation of brush-border membrane vesicles from the ileum of rabbits; from tissue; host or cells: brush-border membrane vesicles from the terminal small intestine (ileum) of male New Zealand rabbits
- Sequence (Q28727 whole entry): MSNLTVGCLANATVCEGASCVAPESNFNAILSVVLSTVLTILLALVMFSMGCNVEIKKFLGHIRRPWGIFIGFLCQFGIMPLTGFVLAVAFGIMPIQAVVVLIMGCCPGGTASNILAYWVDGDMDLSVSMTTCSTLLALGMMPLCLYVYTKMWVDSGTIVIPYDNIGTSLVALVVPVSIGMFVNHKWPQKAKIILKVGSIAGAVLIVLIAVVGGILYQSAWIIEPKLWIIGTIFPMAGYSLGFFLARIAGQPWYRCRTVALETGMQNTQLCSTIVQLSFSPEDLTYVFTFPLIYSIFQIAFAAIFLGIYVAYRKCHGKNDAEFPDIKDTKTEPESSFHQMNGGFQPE
- assay: Inhibition of Na^+ -dependent [^3 H]taurocholate absorption into brush-border membrane vesicles of the ileum
- Assay type: biochemical, rabbit
- assay_context: IC50, [^3 H]taurocholate absorption, rabbit ileum brush-border membrane vesicles; taurocholate 50 μM, pH 7.4, customarily 1 min
reported_metric: IC50 (µM)

1. C[C@H](CCC(=O)NCCO[C@H]1CC[C@@]2(C)[C@@H](C1)C[C@@H](O)[C@@H]1[C@@H]2C[C@H](O)[C@]2(C)[C@@H]([C@H](C)CCC(=O)NCCS(=O)(=O)O)CC[C@@H]12)[C@H]1CC[C@H]2[C@@H]3[C@H](O)C[C@@H]4C[C@H](OCc5ccccc5)CC[C@]4(C)[C@H]3C[C@H](O)[C@]12C :: 50
2. C[C@H](CCC(=O)NCCCNC(=O)CCC(=O)NCCO[C@H]1CC[C@@]2(C)[C@@H](C1)C[C@@H](O)[C@@H]1[C@@H]2C[C@H](O)[C@]2(C)[C@@H]([C@H](C)CCC(=O)NCCS(=O)(=O)O)CC[C@@H]12)[C@H]1CC[C@H]2[C@@H]3[C@H](O)C[C@@H]4C[C@H](OCc5ccccc5)CC[C@]4(C)[C@H]3C[C@H](O)[C@]12C :: 32
3. C[C@H](CCC(=O)NCCS(=O)(=O)O)[C@H]1CC[C@H]2[C@@H]3[C@H](O)C[C@@H]4C[C@@H](OCCNC(=O)CCC(=O)NCCCNC(=O)CC[C@@H](C)[C@H]5CC[C@H]6[C@@H]7[C@H](O)C[C@@H]8C[C@H](OCc9ccccc9)CC[C@]8(C)[C@H]7C[C@H](O)[C@]56C)CC[C@]4(C)[C@H]3CC[C@]12C :: 18
4. C[C@H](CCC(=O)NCCO[C@H]1CC[C@@]2(C)[C@@H](C1)C[C@@H](O)[C@@H]1[C@@H]2C[C@H](O)[C@]2(C)[C@@H]([C@H](C)CCC(=O)NCC(=O)O)CC[C@@H]12)[C@H]1CC[C@H]2[C@@H]3[C@H](O)C[C@@H]4C[C@H](O)CC[C@]4(C)[C@H]3C[C@H](O)[C@]12C :: 48
5. C[C@H](CCC(=O)NCC(=O)O)[C@H]1CC[C@H]2[C@@H]3[C@H](O)C[C@@H]4C[C@@H](OCCNC(=O)CCC(=O)NCCCNC(=O)CC[C@@H](C)[C@H]5CC[C@H]6[C@@H]7[C@H](O)C[C@@H]8C[C@H](OCc9ccccc9)CC[C@]8(C)[C@H]7C[C@H](O)[C@]56C)CC[C@]4(C)[C@H]3CC[C@]12C :: 27

====

The following compounds are listed with their measured pIC50 values.
- system_tested: Na^+ -dependent bile acid transport system (Oryctolagus cuniculus)
- Construct: Preparation of brush-border membrane vesicles from the ileum of rabbits; from tissue; host or cells: brush-border membrane vesicles from the terminal small intestine (ileum) of male New Zealand rabbits
- assay: Inhibition of Na^+ -dependent [^3 H]taurocholate absorption into brush-border membrane vesicles of the ileum
- Format: biochemical, rabbit
- assay_context: IC50 Na, Na^+ -dependent transport component (difference between absorption in Na-T-B and K-T-B); taurocholate 50 μM, pH 7.4, customarily 1 min
pIC50: −log10 of the molar value.
reported_metric: pIC50

1. C[C@H](CCC(=O)NCCO[C@H]1CC[C@@]2(C)[C@@H](C1)C[C@@H](O)[C@@H]1[C@@H]2C[C@H](O)[C@]2(C)[C@@H]([C@H](C)CCC(=O)NCCS(=O)(=O)O)CC[C@@H]12)[C@H]1CC[C@H]2[C@@H]3[C@H](O)C[C@@H]4C[C@H](OCc5ccccc5)CC[C@]4(C)[C@H]3C[C@H](O)[C@]12C [369 (taurine conj.)] :: 4.74
2. C[C@H](CCC(=O)NCC(=O)O)[C@H]1CC[C@H]2[C@@H]3[C@H](O)C[C@@H]4C[C@@H](OCCNC(=O)CCC(=O)NCCCNC(=O)CC[C@@H](C)[C@H]5CC[C@H]6[C@@H]7[C@H](O)C[C@@H]8C[C@H](OCc9ccccc9)CC[C@]8(C)[C@H]7C[C@H](O)[C@]56C)CC[C@]4(C)[C@H]3CC[C@]12C [191 (glycine conj.)] :: 4.74
3. C[C@H](CCC(=O)NCCO[C@H]1CC[C@@]2(C)[C@@H](C1)C[C@@H](O)[C@@H]1[C@@H]2C[C@H](O)[C@]2(C)[C@@H]([C@H](C)CCC(=O)NCC(=O)O)CC[C@@H]12)[C@H]1CC[C@H]2[C@@H]3[C@H](O)C[C@@H]4C[C@H](O)CC[C@]4(C)[C@H]3C[C@H](O)[C@]12C [368 (glycine conj.)] :: 4.80
4. C[C@H](CCC(=O)NCCS(=O)(=O)O)[C@H]1CC[C@H]2[C@@H]3[C@H](O)C[C@@H]4C[C@@H](OCCNC(=O)CCC(=O)NCCCNC(=O)CC[C@@H](C)[C@H]5CC[C@H]6[C@@H]7[C@H](O)C[C@@H]8C[C@H](OCc9ccccc9)CC[C@]8(C)[C@H]7C[C@H](O)[C@]56C)CC[C@]4(C)[C@H]3CC[C@]12C [191 (taurine conj.)] :: 4.85
5. C[C@H](CCC(=O)NCCCNC(=O)CCC(=O)NCCO[C@H]1CC[C@@]2(C)[C@@H](C1)C[C@@H](O)[C@@H]1[C@@H]2C[C@H](O)[C@]2(C)[C@@H]([C@H](C)CCC(=O)NCCS(=O)(=O)O)CC[C@@H]12)[C@H]1CC[C@H]2[C@@H]3[C@H](O)C[C@@H]4C[C@H](OCc5ccccc5)CC[C@]4(C)[C@H]3C[C@H](O)[C@]12C [172 (taurine conj.)] :: 4.70

Where do the numbers come from? From patent US5250524A.
